assay.target: 5-HT2BR (Homo sapiens, UniProt P41595)
Sequence (P41595 whole entry): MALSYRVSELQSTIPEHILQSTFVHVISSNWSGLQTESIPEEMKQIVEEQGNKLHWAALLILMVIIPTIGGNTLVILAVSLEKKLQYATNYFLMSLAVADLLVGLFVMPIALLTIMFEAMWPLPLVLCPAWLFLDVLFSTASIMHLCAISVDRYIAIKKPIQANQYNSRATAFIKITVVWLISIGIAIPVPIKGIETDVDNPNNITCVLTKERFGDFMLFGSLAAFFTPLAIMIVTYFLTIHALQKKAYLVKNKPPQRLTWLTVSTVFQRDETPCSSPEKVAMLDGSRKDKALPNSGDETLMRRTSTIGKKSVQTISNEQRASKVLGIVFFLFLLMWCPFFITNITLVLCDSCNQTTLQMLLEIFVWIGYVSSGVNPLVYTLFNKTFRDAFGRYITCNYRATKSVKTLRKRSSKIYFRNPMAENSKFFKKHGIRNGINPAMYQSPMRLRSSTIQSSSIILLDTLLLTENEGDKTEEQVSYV
test.details: biochemical
pKi: −log10 of the molar value.
Tag: T if measured pKi is not below 7, F if it is.

{"molecule": "CN(C)[C@@H]1Cc2ccccc2[C@H](c2cccc(F)c2)C1 (single isomer, unassigned) [(2R,4R)-3b′]", "assigned.label": "F"}

Next item in the queue.
Prompt: Threshold query (pKi >= 7) on CN(C)[C@@H]1Cc2ccccc2[C@@H](c2cccc(-c3ccccc3)c2)C1 (single isomer, unassigned) [(2S,4R)-2f]
Completion: T

---

assay.target: 5-HT2BR (Homo sapiens, UniProt P41595)
test.details: biochemical
recorded.endpoint: pKi
Remember the convention: pKi equals -log10 of concentration in molar.

{"compound": "CN(C)[C@@H]1Cc2ccccc2[C@H](c2cccc(Cl)c2)C1 (single isomer, unassigned) [(2R,4R)-3b]", "pKi": 6.94}

Prompt: Would you mind telling me what pKi value was observed for CN(C)[C@@H]1Cc2ccccc2[C@H](c2cccc(-c3cccs3)c2)C1 (single isomer, unassigned) [(2S,4S)-3c] ?
Completion: 7.05

Prompt: Would you mind telling me what pKi value was observed for CN(C)[C@@H]1Cc2ccccc2[C@H](c2cccc(-c3ccccc3)c2)C1 (single isomer, unassigned) [(2R,4R)-3f] ?
Completion: 6.93

Prompt: Would you mind telling me what pKi value was observed for CN(C)[C@@H]1Cc2ccccc2[C@@H](c2cccc(-c3ccccc3)c2)C1 (single isomer, unassigned) [(2R,4S)-2f] ?
Completion: 6.95

Prompt: Would you mind telling me what pKi value was observed for CN(C)[C@@H]1Cc2ccccc2[C@H](c2cccc(-c3cccs3)c2)C1 (single isomer, unassigned) [(2R,4R)-3c] ?
Completion: 6.98
